Recorded pIC50 by entry
System: NCI-H460
assay name: Antiproliferative activity against human NCI-H460 cells after 3 days
Type: functional, cell-based
experimental parameters: NCI-H460, 72 h
pIC50: −log10 of the molar value.
value kind: pIC50

chem_smiles=CCCCN1C=Nc2cccc3nc4c(c1c23)Cn1c-4cc2c(c1=O)COC(=O)[C@]2(O)CC numeric_result=8.80
chem_smiles=CC[C@@]1(O)C(=O)OCc2c1cc1n(c2=O)Cc2c-1nc1cccc3c1c2N(CCC(C)C)C=N3 numeric_result=9.96
chem_smiles=CCCCCN1C(C)=Nc2cccc3nc4c(c1c23)Cn1c-4cc2c(c1=O)COC(=O)[C@]2(O)CC numeric_result=9.18
chem_smiles=CCCCN1C(=O)Nc2cccc3nc4c(c1c23)Cn1c-4cc2c(c1=O)COC(=O)[C@]2(O)CC numeric_result=9.00

====

Tested on: NCI-H460
assay name: Antiproliferative activity against human NCI-H460 cells after 3 days
Type: functional, cell-based
experimental parameters: NCI-H460, 72 h
This section presents compounds with their documented IC50 values.
value kind: IC50 (nM)

chem_smiles=CC[C@@]1(O)C(=O)OCc2c1cc1n(c2=O)Cc2c-1nc1cccc3c1c2N(CCC(C)C)C(=S)N3 system_under_test=NCI-H460 numeric_result=0.08
chem_smiles=CC[C@@]1(O)C(=O)OCc2c1cc1n(c2=O)Cc2c-1nc1cccc3c1c2N(CCN1CCOCC1)C=N3 system_under_test=NCI-H460 numeric_result=7.2
chem_smiles=CCCCCN1C=Nc2cccc3nc4c(c1c23)Cn1c-4cc2c(c1=O)COC(=O)[C@]2(O)CC system_under_test=NCI-H460 numeric_result=2.3
chem_smiles=CCCCCN1C(=O)Nc2cccc3nc4c(c1c23)Cn1c-4cc2c(c1=O)COC(=O)[C@]2(O)CC system_under_test=NCI-H460 numeric_result=8.2

====

System: NCI-H460
assay name: Antiproliferative activity against human NCI-H460 cells after 3 days
Assay type: functional, cell-based
experimental parameters: NCI-H460, 72 h
pIC50: −log10 of the molar value.
value kind: pIC50

compound=CC[C@@]1(O)C(=O)OCc2c1cc1n(c2=O)Cc2c-1nc1cccc3c1c2N(CCC(C)C)C(=O)N3 value_kind=pIC50 numeric_result=9.14
compound=CC[C@@]1(O)C(=O)OCc2c1cc1n(c2=O)Cc2c-1nc1cccc3c1c2N(CCc1ccccc1)C=N3 value_kind=pIC50 numeric_result=9.04
compound="CCc1c2c(nc3ccc(O)cc13)-c1cc3c(c(=O)n1C2)COC(=O)[C@]3(O)CC [7-ETHYL-10-HYDROXYCAMPTOTHECIN]" value_kind=pIC50 numeric_result=8.48
compound=CC[C@@]1(O)C(=O)OCc2c1cc1n(c2=O)Cc2c-1nc1cccc3c1c2N(CCC(C)C)C(CO)=N3 value_kind=pIC50 numeric_result=9.28
compound=CC[C@@]1(O)C(=O)OCc2c1cc1n(c2=O)Cc2c-1nc1cccc3c1c2N(CCc1ccccc1)C(=O)N3 value_kind=pIC50 numeric_result=9.42
compound=CC[C@@]1(O)C(=O)OCc2c1cc1n(c2=O)Cc2c-1nc1cccc3c1c2N(CCN1CCOCC1)C(=O)N3 value_kind=pIC50 numeric_result=7.59

====

system under test: UniProtKB P11387
Sequence (P11387 whole entry): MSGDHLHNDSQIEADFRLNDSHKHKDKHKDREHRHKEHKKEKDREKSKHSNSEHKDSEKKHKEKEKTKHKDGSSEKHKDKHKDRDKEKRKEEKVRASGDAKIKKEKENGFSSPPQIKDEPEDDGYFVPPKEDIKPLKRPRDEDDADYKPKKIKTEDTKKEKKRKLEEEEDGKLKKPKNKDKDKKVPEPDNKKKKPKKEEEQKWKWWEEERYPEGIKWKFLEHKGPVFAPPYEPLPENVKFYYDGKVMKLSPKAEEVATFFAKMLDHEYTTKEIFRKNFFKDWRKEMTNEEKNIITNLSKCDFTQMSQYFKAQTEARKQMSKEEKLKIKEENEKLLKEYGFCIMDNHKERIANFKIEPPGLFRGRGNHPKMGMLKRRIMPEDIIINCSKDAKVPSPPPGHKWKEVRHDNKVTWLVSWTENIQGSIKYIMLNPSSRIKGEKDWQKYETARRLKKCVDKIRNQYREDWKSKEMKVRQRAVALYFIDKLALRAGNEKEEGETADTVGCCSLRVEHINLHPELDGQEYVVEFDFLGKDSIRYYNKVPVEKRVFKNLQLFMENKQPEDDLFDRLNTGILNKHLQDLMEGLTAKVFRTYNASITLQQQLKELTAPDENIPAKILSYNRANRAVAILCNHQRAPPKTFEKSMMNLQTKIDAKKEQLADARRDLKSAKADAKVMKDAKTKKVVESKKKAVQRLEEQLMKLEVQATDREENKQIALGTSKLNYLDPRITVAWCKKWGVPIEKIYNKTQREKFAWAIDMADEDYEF
pIC50: −log10 of the molar value.
value kind: pIC50

compound="CCc1c2c(nc3ccc(O)cc13)-c1cc3c(c(=O)n1C2)COC(=O)[C@]3(O)CC [7-ETHYL-10-HYDROXYCAMPTOTHECIN]" numeric_result=5.26
compound=CCCCCN1C=Nc2cccc3nc4c(c1c23)Cn1c-4cc2c(c1=O)COC(=O)[C@]2(O)CC numeric_result=5.64

====

MTD at 504 h: recorded values
assay name: Toxicity to iv dosed mouse administered as single bolus dose for 3 weeks
Format: organism-based
experimental parameters: in vivo
value kind: MTD at 504 h (mg/kg)

compound="CCc1c2c(nc3ccc(OC(=O)N4CCC(N5CCCCC5)CC4)cc13)-c1cc3c(c(=O)n1C2)COC(=O)[C@]3(O)CC [IRINOTECAN]" numeric_result=100
compound=CCCCCN1C=Nc2cccc3nc4c(c1c23)Cn1c-4cc2c(c1=O)COC(=O)[C@]2(O)CC numeric_result=40

====

Tested on: HCT-116
assay name: Antiproliferative activity against human HCT116 cells after 3 days
Type: functional, cell-based
experimental parameters: HCT-116, 72 h
Criterion: IC50 strictly under 0.5 nM. Met: satisfied. Not met: not satisfied.

compound=CC[C@@]1(O)C(=O)OCc2c1cc1n(c2=O)Cc2c-1nc1cccc3c1c2N(CCC(C)C)C=N3 system_under_test=HCT-116 assigned_label=satisfied
compound="CCc1c2c(nc3ccc(O)cc13)-c1cc3c(c(=O)n1C2)COC(=O)[C@]3(O)CC [7-ETHYL-10-HYDROXYCAMPTOTHECIN]" system_under_test=HCT-116 assigned_label="not satisfied"
compound=CC[C@@]1(O)C(=O)OCc2c1cc1n(c2=O)Cc2c-1nc1cccc3c1c2N(CCN1CCOCC1)C=N3 system_under_test=HCT-116 assigned_label="not satisfied"
compound=CC[C@@]1(O)C(=O)OCc2c1cc1n(c2=O)Cc2c-1nc1cccc3c1c2N(CCc1ccccc1)C(=O)N3 system_under_test=HCT-116 assigned_label=satisfied
compound=CCCCCN1C(=O)Nc2cccc3nc4c(c1c23)Cn1c-4cc2c(c1=O)COC(=O)[C@]2(O)CC system_under_test=HCT-116 assigned_label="not satisfied"
compound=CCCCCN1C=Nc2cccc3nc4c(c1c23)Cn1c-4cc2c(c1=O)COC(=O)[C@]2(O)CC system_under_test=HCT-116 assigned_label=satisfied
compound=CC[C@@]1(O)C(=O)OCc2c1cc1n(c2=O)Cc2c-1nc1cccc3c1c2N(CCC(C)C)C(CO)=N3 system_under_test=HCT-116 assigned_label=satisfied
compound=CC[C@@]1(O)C(=O)OCc2c1cc1n(c2=O)Cc2c-1nc1cccc3c1c2N(CCN1CCOCC1)C(=O)N3 system_under_test=HCT-116 assigned_label="not satisfied"
compound=CCCCN1C(=O)Nc2cccc3nc4c(c1c23)Cn1c-4cc2c(c1=O)COC(=O)[C@]2(O)CC system_under_test=HCT-116 assigned_label=satisfied
compound=CC[C@@]1(O)C(=O)OCc2c1cc1n(c2=O)Cc2c-1nc1cccc3c1c2N(CCC(C)C)C(=S)N3 system_under_test=HCT-116 assigned_label=satisfied
compound=CCCCCN1C(C)=Nc2cccc3nc4c(c1c23)Cn1c-4cc2c(c1=O)COC(=O)[C@]2(O)CC system_under_test=HCT-116 assigned_label=satisfied
compound=CCCCN1C=Nc2cccc3nc4c(c1c23)Cn1c-4cc2c(c1=O)COC(=O)[C@]2(O)CC system_under_test=HCT-116 assigned_label="not satisfied"
compound=CC[C@@]1(O)C(=O)OCc2c1cc1n(c2=O)Cc2c-1nc1cccc3c1c2N(CCC(C)C)C(=O)N3 system_under_test=HCT-116 assigned_label=satisfied
compound=CC[C@@]1(O)C(=O)OCc2c1cc1n(c2=O)Cc2c-1nc1cccc3c1c2N(CCc1ccccc1)C=N3 system_under_test=HCT-116 assigned_label=satisfied
